- Test system: NCI-H226
- Test description: Antitumor activity against human NCI-H226 cells assessed as reduction of cell growth at 10 uM after 48 hrs by SRB assay
- Assay type: functional
- Set-up: scale not given: the % may be the effect or the level left
Reported property: Activity (%)
Answers are plain numbers, in %.

Worked examples follow.
C[C@]12CC[C@H]3[C@@H](CCC4=CC(=O)CC[C@@]43CF)[C@@H]1CCC2=O    111.29
C[C@]12CCC(=O)C(N)=C1C=C[C@@H]1[C@@H]2CC[C@]2(C)C(=O)CC[C@@H]12.Cl    96.3
C[C@]12CCC(=O)C(Oc3ccccc3)=C1CC[C@@H]1[C@@H]2CC[C@]2(C)C(=O)CC[C@@H]12    96.55

# evaluate next
Lookup result for `CCOC1=C2CC[C@@H]3[C@H](CC[C@]4(C)C(=O)CC[C@@H]34)[C@@]2(C)CCC1=O` ; measured Activity: 98.58

* * *

- System: T47D
- Test description: Antitumor activity against human T47D cells assessed as reduction of cell growth at 10 uM after 48 hrs by SRB assay
- Type: functional
- Set-up: scale not given: the % may be the effect or the level left
Task for the reader: assign each of the following compounds its reported Activity.
Answers are plain numbers, in %.

C[C@]12CC[C@H]3[C@@H](CCC4=CC(=O)CC[C@@]43CF)[C@@H]1CCC2=O    39.44
C[C@]12CCC(=O)C(N)=C1C=C[C@@H]1[C@@H]2CC[C@]2(C)C(=O)CC[C@@H]12.Cl    73.66
C[C@]12CCC(=O)C(Oc3ccccc3)=C1CC[C@@H]1[C@@H]2CC[C@]2(C)C(=O)CC[C@@H]12    116.7

Short answer for `CCOC1=C2CC[C@@H]3[C@H](CC[C@]4(C)C(=O)CC[C@@H]34)[C@@]2(C)CCC1=O` : Activity was 117.94

* * *

- Tested on: HL-60(TB)
- Test description: Antitumor activity against human HL-60(TB) cells assessed as reduction of cell growth at 10 uM after 48 hrs by SRB assay
- Format: functional
- Design: scale not given: the % may be the effect or the level left
Hi there, I'd appreciate the recorded Activity for every entry that follows.

C[C@]12CC[C@H]3[C@@H](CCC4=CC(=O)CC[C@@]43CF)[C@@H]1CCC2=O    112.8%
CCOC1=C2CC[C@@H]3[C@H](CC[C@]4(C)C(=O)CC[C@@H]34)[C@@]2(C)CCC1=O    112.2%

Lab note: each compound below needs its Activity filled in.
1. C[C@]12CCC(=O)C(Oc3ccccc3)=C1CC[C@@H]1[C@@H]2CC[C@]2(C)C(=O)CC[C@@H]12
2. C[C@]12CCC(=O)C(N)=C1C=C[C@@H]1[C@@H]2CC[C@]2(C)C(=O)CC[C@@H]12.Cl

stdout:
1: 105.95%; 2: 52.53%

* * *

- Test system: SF-539
- Test description: Antitumor activity against human SF-539 cells assessed as reduction of cell growth at 10 uM after 48 hrs by SRB assay
- Assay type: functional
- Design: scale not given: the % may be the effect or the level left
Assign Activity to each entry below.
Give bare numbers, in %.

In the examples that follow, each entry is paired with its recorded Activity.
CCOC1=C2CC[C@@H]3[C@H](CC[C@]4(C)C(=O)CC[C@@H]34)[C@@]2(C)CCC1=O    111.3
C[C@]12CCC(=O)C(Oc3ccccc3)=C1CC[C@@H]1[C@@H]2CC[C@]2(C)C(=O)CC[C@@H]12    106.75
C[C@]12CC[C@H]3[C@@H](CCC4=CC(=O)CC[C@@]43CF)[C@@H]1CCC2=O    105.8

Continue with the next molecule.
Note to self: Activity recorded for `C[C@]12CCC(=O)C(N)=C1C=C[C@@H]1[C@@H]2CC[C@]2(C)C(=O)CC[C@@H]12.Cl` was 82.75

* * *

- Tested on: M14
- Test description: Antitumor activity against human M14 cells assessed as reduction of cell growth at 10 uM after 48 hrs by SRB assay
- Type: functional
- Parameters: scale not given: the % may be the effect or the level left
Reported property: Activity
Include the unit right after the number.

For each of the molecules below, note its Activity.
1. CCOC1=C2CC[C@@H]3[C@H](CC[C@]4(C)C(=O)CC[C@@H]34)[C@@]2(C)CCC1=O
2. C[C@]12CCC(=O)C(Oc3ccccc3)=C1CC[C@@H]1[C@@H]2CC[C@]2(C)C(=O)CC[C@@H]12
3. C[C@]12CCC(=O)C(N)=C1C=C[C@@H]1[C@@H]2CC[C@]2(C)C(=O)CC[C@@H]12.Cl

stdout:
1. 103.8%
2. 102.62%
3. 79.51%

The molecule listed as `C[C@]12CC[C@H]3[C@@H](CCC4=CC(=O)CC[C@@]43CF)[C@@H]1CCC2=O` has a reported Activity of 102.8%

* * *

- Tested on: SNB-75
- Test description: Antitumor activity against human SNB75 cells assessed as reduction of cell growth at 10 uM after 48 hrs by SRB assay
- Assay type: functional
- Design: scale not given: the % may be the effect or the level left
Reported property: Activity (%)
Numbers only, in %.

Consider the following items and state reported Activity for each.
1. C[C@]12CCC(=O)C(N)=C1C=C[C@@H]1[C@@H]2CC[C@]2(C)C(=O)CC[C@@H]12.Cl
2. CCOC1=C2CC[C@@H]3[C@H](CC[C@]4(C)C(=O)CC[C@@H]34)[C@@]2(C)CCC1=O
3. C[C@]12CCC(=O)C(Oc3ccccc3)=C1CC[C@@H]1[C@@H]2CC[C@]2(C)C(=O)CC[C@@H]12

stdout:
[94.19, 79.71, 91.11]

Memo: `C[C@]12CC[C@H]3[C@@H](CCC4=CC(=O)CC[C@@]43CF)[C@@H]1CCC2=O` , reported Activity: 90.07

* * *

- Test description: Antitumor activity against human HCT 116 cells assessed as reduction of cell growth at 10 uM after 48 hrs by SRB assay
- Assay type: functional
- Design: scale not given: the % may be the effect or the level left
Please respond with reported Activity for every item in the list.

Field: example entries. Status: answers known.
C[C@]12CCC(=O)C(Oc3ccccc3)=C1CC[C@@H]1[C@@H]2CC[C@]2(C)C(=O)CC[C@@H]12    99.87%
C[C@]12CC[C@H]3[C@@H](CCC4=CC(=O)CC[C@@]43CF)[C@@H]1CCC2=O    110.19%
CCOC1=C2CC[C@@H]3[C@H](CC[C@]4(C)C(=O)CC[C@@H]34)[C@@]2(C)CCC1=O    103.2%

Please look at the following compound next.
Documented Activity of `C[C@]12CCC(=O)C(N)=C1C=C[C@@H]1[C@@H]2CC[C@]2(C)C(=O)CC[C@@H]12.Cl` : 6.15%

* * *

- Test system: NCI-H23
- Test description: Antitumor activity against human NCI-H23 cells assessed as reduction of cell growth at 10 uM after 48 hrs by SRB assay
- Format: functional
- Design: scale not given: the % may be the effect or the level left
Reported property: Activity (%)
Give bare numbers, in %.

Check out these entries, answers already filled in.
C[C@]12CCC(=O)C(N)=C1C=C[C@@H]1[C@@H]2CC[C@]2(C)C(=O)CC[C@@H]12.Cl    74.07
C[C@]12CCC(=O)C(Oc3ccccc3)=C1CC[C@@H]1[C@@H]2CC[C@]2(C)C(=O)CC[C@@H]12    97.57
CCOC1=C2CC[C@@H]3[C@H](CC[C@]4(C)C(=O)CC[C@@H]34)[C@@]2(C)CCC1=O    101.11

// next entry
Param item: `C[C@]12CC[C@H]3[C@@H](CCC4=CC(=O)CC[C@@]43CF)[C@@H]1CCC2=O` ; param system: NCI-H23; output Activity: 106.48

* * *

- Test system: UACC-62
- Test description: Antitumor activity against human UACC-62 cells assessed as reduction of cell growth at 10 uM after 48 hrs by SRB assay
- Assay type: functional
- Parameters: scale not given: the % may be the effect or the level left
Consider the following molecules; for each one, report its Activity.
// return the numeric value with its unit appended

Examples from the recorded data:
CCOC1=C2CC[C@@H]3[C@H](CC[C@]4(C)C(=O)CC[C@@H]34)[C@@]2(C)CCC1=O    90.78%
C[C@]12CCC(=O)C(N)=C1C=C[C@@H]1[C@@H]2CC[C@]2(C)C(=O)CC[C@@H]12.Cl    81.02%
C[C@]12CCC(=O)C(Oc3ccccc3)=C1CC[C@@H]1[C@@H]2CC[C@]2(C)C(=O)CC[C@@H]12    87.46%

Now examine the next entry.
So for `C[C@]12CC[C@H]3[C@@H](CCC4=CC(=O)CC[C@@]43CF)[C@@H]1CCC2=O` , the logged Activity turned out to be 114.6%
